- assay-procedure: chemical genetic growth profiling, strain panel (AID 1159580);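 also: tested at 20 µM; growth read once vehicle control cultures reached saturation at 30 °C; 1 = growth at the plate median or of vehicle wells; lower values mean less growth of the strain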
- run-parameters: S. cerevisiae deletion strains, growth OD, locus YLR371W, strain rom2, active compounds read low
The whole screen tested about 5,500 compounds, of which about 2,000 (36%) were called active. Inconclusive results (about 18%) are left out. The list shows a part of the results.
measure-name: normalized growth
Hey, just send me the number, nothing else.

| molecule | experimental-result |
| --- | --- |
| O=C(OC[C@H]1O[C@H](OC(=O)c2cc(O)c(O)c(OC(=O)c3cc(O)c(O)c(O)c3)c2)[C@H](OC(=O)c2cc(O)c(O)c(OC(=O)c3cc(O)c(O)c(O)c3)c2)[C@@H](OC(=O)c2cc(O)c(O)c(OC(=O)c3cc(O)c(O)c(O)c3)c2)[C@@H]1OC(=O)c1cc(O)c(O)c(OC(=O)c2cc(O)c(O)c(O)c2)c1)c1cc(O)c(O)c(OC(=O)c2cc(O)c(O)c(O)c2)c1 | 0.0958 |

[Q] Name the reported normalized growth value associated with the molecule CC(=O)[C@@]1(O)CCC2C3CCC4=CC(=O)CC[C@]4(C)C3CC[C@@]21C (some centres undefined)
[A] 1.01

[Q] Name the reported normalized growth value associated with the molecule CCOC([O-])=Nc1c[n+](N2CCOCC2)no1
[A] 0.994

[Q] Name the reported normalized growth value associated with the molecule CC1(C)C(=O)[C@@H]2O[C@@H]2[C@@]2(C)C1CC(=O)[C@]1(C)C2CC[C@@]2(C)[C@H](c3ccoc3)OC(=O)[C@H]3O[C@]321 (some centres undefined)
[A] 0.962

[Q] Name the reported normalized growth value associated with the molecule CCc1cccc2c3c([nH]c12)C(CC)(CC(=O)O)OCC3 (centres undefined)
[A] 0.987

====

- assay-procedure: chemical genetic growth profiling, strain panel (AID 1159580)
- run-parameters: S. cerevisiae deletion strains, growth OD, locus YLR039C, strain RIC1, active compounds read low
Hit rate of the full screen: of about 5,500 compounds, about 2,000 (36%) were called active. Not shown: some 18% with an inconclusive outcome. This is one part of the list.
Flag rule - normalized growth less than 1 flags met; the remaining entries get not met.

| compound | assigned-label |
| --- | --- |
| CN1CCN(CCCN2c3ccccc3Sc3ccc(C(F)(F)F)cc32)CC1 | met |
| O=C1CC2(CCCC2)C(=O)N1CCNc1nccc(C(F)(F)F)n1 | met |
| CC1(C)C=Cc2cc3ccc(=O)oc3cc2O1 | met |
| CC(=O)C1C(=O)CC(c2ccc(Cl)cc2)CC1=O (stereo not drawn) | met |
| O=C(CCc1ccc(O)cc1)c1c(O)cc(O)cc1O[C@@H]1O[C@H](CO)[C@@H](O)[C@H](O)[C@H]1O | not met |
| COc1cc(/C=C2/SC(=S)NC2=O)cc(OC)c1OC | met |

[Q] Hello, is normalized growth of the following compound strictly smaller than 1? COc1cccc(C(=O)N/N=C(/C)c2ccccc2O)c1
[A] met

[Q] Hello, is normalized growth of the following compound strictly smaller than 1? CN1CCN(CCC=C2c3ccccc3Sc3ccc(S(=O)(=O)N(C)C)cc32)CC1
[A] not met

[Q] Hello, is normalized growth of the following compound strictly smaller than 1? COc1cc([N+](=O)[O-])ccc1N1CCCC1
[A] met

[Q] Hello, is normalized growth of the following compound strictly smaller than 1? COc1ccc2c(c1)[C@]13CCCC[C@H]1[C@H](C2)N(C)CC3
[A] not met

[Q] Hello, is normalized growth of the following compound strictly smaller than 1? O=C1C=C(Cl)CC(c2ccc(C(F)(F)F)cc2)C1 (stereo not drawn)
[A] met

[Q] Hello, is normalized growth of the following compound strictly smaller than 1? CN1C(=O)CCS(=O)(=O)C1c1ccc(Cl)cc1 (stereo not drawn)
[A] not met

[Q] Hello, is normalized growth of the following compound strictly smaller than 1? CC1(C)S[C@@H]2[C@H](NC(=O)Cc3ccccc3)C(=O)N2[C@H]1C(=O)O
[A] not met

[Q] Hello, is normalized growth of the following compound strictly smaller than 1? CCOC(=O)c1cnc2nc(SC)nn2c1N
[A] not met

[Q] Hello, is normalized growth of the following compound strictly smaller than 1? CC(C)S(=O)(=O)c1csc(C(N)=O)c1Cl
[A] not met

====

Reported normalized growth values follow for various compounds
- assay-procedure: chemical genetic growth profiling, strain panel (AID 1159580)
- run-parameters: S. cerevisiae deletion strains, growth OD, locus YMR129W, active compounds read low
The campaign covered roughly 5,500 compounds. About 2,000 (36%) were called active. Another 18% or so got no clear call; they are omitted. Some of the results follow.
Hey, just send me the number, nothing else.

As a guide, the following entries are already answered.
| compound | measure-name | experimental-result |
| --- | --- | --- |
| CC[C@H]1CN2CCc3cc(OC)c(OC)cc3C2C[C@@H]1CC1NCCc2cc(OC)c(OC)cc21 (some centres undefined) | normalized growth | 0.97 |
| O=C(CCc1ccc(O)cc1)c1c(O)cc(O)cc1O[C@@H]1O[C@H](CO)[C@@H](O)[C@H](O)[C@H]1O | normalized growth | 1.01 |
| CN1CCN(CC(=O)N2c3ccccc3C(=O)Nc3cccnc32)CC1 | normalized growth | 1.02 |

[Q] Name the reported normalized growth value associated with the compound CC1(C)C(=O)[C@@H]2C[C@@]3(O)C4=CC(=O)O[C@@H](c5ccoc5)[C@]4(C)CCC3[C@@](C)(C2=O)[C@H]1CC(=O)O (some centres undefined)
[A] 1

====

- assay-procedure: chemical genetic growth profiling, strain panel (AID 1159580);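 also: tested at 20 µM; growth read once vehicle control cultures reached saturation at 30 °C; 1 = growth at the plate median or of vehicle wells; lower values mean less growth of the strain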
- run-parameters: S. cerevisiae deletion strains, growth OD, locus YNL183C, strain NPR1, active compounds read low
The whole screen tested about 5,500 compounds, of which about 2,000 (36%) were called active. Roughly 18% stayed inconclusive and do not appear here. This is one part of the list.
measure-name: normalized growth
Hey, just send me the number, nothing else.

As a guide, the following entries are already answered.
| compound | normalized growth |
| --- | --- |
| CSc1nnc(COc2ccc(C)c3c2CCC3)n1-c1ccccc1 | 1.05 |
| COC(=O)C[C@H]1C(C)(C)[C@@H](O)[C@@H]2CC3=C4C=C(OC)O[C@@H](c5ccoc5)[C@]4(C)CCC3[C@@]1(C)C2=O (some centres not stated) | 0.938 |
| CC(=O)CC1CCCCN1 (configuration not stated) | 0.954 |

Field: next compound
[Q] Name the reported normalized growth value associated with the compound CN1CCN(CCCN2c3ccccc3Sc3ccc(C(F)(F)F)cc32)CC1
[A] 0.91

====

- assay-procedure: chemical genetic growth profiling, strain panel (AID 1159580);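 also: tested at 20 µM; growth read once vehicle control cultures reached saturation at 30 °C; 1 = growth at the plate median or of vehicle wells; lower values mean less growth of the strain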
- run-parameters: S. cerevisiae deletion strains, growth OD, locus YGR092W, strain DBF2
Hit rate of the full screen: of about 5,500 compounds, about 2,000 (36%) were called active. Not shown: some 18% with an inconclusive outcome. Cut-off read from the data, not from the text of the source: active = normalized growth mostly below about 0.91 (no sharp cut-off); inconclusive = no clear call, values can overlap the other calls; inactive = mostly above about 0.92. The list shows a part of the results.
Returns: one label drawn from active, inactive

| compound | assigned-label |
| --- | --- |
| CS/C(Nc1cccc(C(F)(F)F)c1)=C(/C#N)S(=O)(=O)c1ccc(Cl)cc1 | inactive |

[Q] What classification did O=C(NNC(=S)Nc1ccc(Cl)cc1)c1ncc(C(F)(F)F)cc1Cl end up with in this test?
[A] inactive

[Q] What classification did O=C(Nc1cc2c(s1)-c1cc(Cl)ccc1SC2)Oc1ccccc1 end up with in this test?
[A] inactive

[Q] What classification did CC(C)(C)c1ccc(C(=O)NNC(=S)Nc2ccc(Cl)cc2)cc1 end up with in this test?
[A] inactive

====

Reported normalized growth values follow for various molecules
- assay-procedure: chemical genetic growth profiling, strain panel (AID 1159580);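 also: tested at 20 µM; growth read once vehicle control cultures reached saturation at 30 °C; 1 = growth at the plate median or of vehicle wells; lower values mean less growth of the strain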
- run-parameters: S. cerevisiae deletion strains, growth OD, locus YLL041C, strain sdh2, active compounds read low
Among all 5,500 compounds or so, about 2,000 (36%) were called active. Another 18% or so got no clear call; they are omitted. The list shows a part of the results.
Hey, just send me the number, nothing else.

| molecule | normalized growth |
| --- | --- |
| CN(C)CCc1c[nH]c2ccc(C[C@H]3COC(=O)N3)cc12 | 1.01 |
| CN(C)CCc1c[nH]c2ccc(CS(=O)(=O)N3CCCC3)cc12 | 1 |
| COc1ccc([C@H]2COc3c(ccc(O)c3OC)C2)c(OC)c1O | 0.98 |

[Q] Name the reported normalized growth value associated with the molecule NC(=O)N1c2ccccc2C=Cc2ccccc21
[A] 1.02

[Q] Name the reported normalized growth value associated with the molecule CCCCc1nc(Cl)c(CO)n1Cc1ccc(-c2ccccc2-c2nn[nH]n2)cc1
[A] 0.992

[Q] Name the reported normalized growth value associated with the molecule O=C(OC[C@H]1O[C@H](OC(=O)c2cc(O)c(O)c(OC(=O)c3cc(O)c(O)c(O)c3)c2)[C@H](OC(=O)c2cc(O)c(O)c(OC(=O)c3cc(O)c(O)c(O)c3)c2)[C@@H](OC(=O)c2cc(O)c(O)c(OC(=O)c3cc(O)c(O)c(O)c3)c2)[C@@H]1OC(=O)c1cc(O)c(O)c(OC(=O)c2cc(O)c(O)c(O)c2)c1)c1cc(O)c(O)c(OC(=O)c2cc(O)c(O)c(O)c2)c1
[A] 0.951

[Q] Name the reported normalized growth value associated with the molecule CN[C@@H]1[C@@H](O[C@H]2O[C@H](CO)[C@@H](N)[C@H](O)[C@H]2O)O[C@H]2C[C@@H](N)[C@H](O[C@H]3[C@H](O)[C@@H](O)[C@H](N)C[C@@H]3N)O[C@@H]2[C@@H]1O
[A] 0.997

[Q] Name the reported normalized growth value associated with the molecule COc1ccc(C(=O)c2ccccc2)c(O)c1O
[A] 0.957

[Q] Name the reported normalized growth value associated with the molecule CC(=O)OC[C@H]1O[C@@H](Oc2cc(OC(C)=O)c3c(=O)cc(-c4ccc(OC(C)=O)cc4)oc3c2)[C@H](OC(C)=O)[C@@H](OC(C)=O)[C@@H]1OC(C)=O
[A] 0.991

[Q] Name the reported normalized growth value associated with the molecule C#C[C@]1(O)CCC2C3CCC4=Cc5oncc5C[C@]4(C)C3CC[C@@]21C (stereo not given in full)
[A] 0.961

[Q] Name the reported normalized growth value associated with the molecule COc1cc2c(cc1O)CCNC2C (stereo not given)
[A] 0.992

[Q] Name the reported normalized growth value associated with the molecule CC1=NN(c2ccccc2)C(=O)C1
[A] 0.99

[Q] Name the reported normalized growth value associated with the molecule C#CC1(O)CCC2C3CCC4=CC(=O)CCC4(C)C3CCC21C (stereo not given)
[A] 0.998

[Q] Name the reported normalized growth value associated with the molecule COc1cc2c(cc1OC)[C@@H]1C(=O)c3ccc4c(c3O[C@@H]1CO2)CC(C(C)C)O4 (stereo not given in full)
[A] 1
